Test: Pharmacokinetics of single and repeated oral doses of PDS in healthy male subjects
Assay type: in vivo, human
Conditions: male, human, plasma, po, 1600 mg, 1600 mg t.i.d. group, Day 1 (single oral administration), n = 6; mean
Method: In the following examples, terms are as defined below. […] The safety, tolerability and pharmacokinetics of PDS following multiple rising oral doses in healthy male adult volunteers is determined. […] Plasma concentrations of PDS are determined using validated HPLC methods. […]
propertyMeasured: Cmax

[in] Look at this compound and give its reported Cmax. O=S(=O)([O-])CCCS(=O)(=O)[O-].[Na+].[Na+] [PDS]
[out] 2.89 µg/mL
